- assayed_system: GTPase HRas (Homo sapiens)
- assay_procedure: Ras wt fluorescent GTP loading blockade – biochemical, wildtype, multiplex bead flow cytometry, dose response (AID 1335)
- test_conditions: bead-based flow cytometry, Bodipy-GTP binding to GST-Ras; at 100 µM (top of the series) unless noted
As shown below, each of these compounds has a reported GTP binding, percent of control value.
Dear colleague, please return just the value in %, with no unit written.

Some compounds with recorded GTP binding, percent of control:
[
  {
    "smiles_code": "COc1ccc(OC)c(Nc2nc(-c3sc(N)nc3C)cs2)c1",
    "GTP binding, percent of control / %": 72.6
  },
  {
    "smiles_code": "CCN1/C(=C/C=C/C=C/c2sc3ccccc3[n+]2CC)Sc2ccccc21",
    "GTP binding, percent of control / %": 2
  }
]

Value wanted: GTP binding, percent of control (GTPase HRas (Homo sapiens)) of entry Cc1ccc(-c2csc3nc4c5ccccc5c(NCCCN5CCOCC5)nn4c(=O)c23)cc1
68.7

----------
- assay_procedure: reduced mouse 2C T cell binding to pMHC/ICAM-1 vesicles – MLPCN validation set, flow cytometry, LFA-1/ICAM-1 modulator project, pilot screen (AID 2523);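 further: mean PE anti-B7-1 fluorescence of CD8+ cells relative to row control; 100% = QL9-loaded vesicles with DMSO vehicle in the same plate row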
- test_conditions: 2C mouse CD8+ T cells, at 7 µM, stronger effect = lower value
Threshold 200%: vesicle binding response strictly smaller gives true, otherwise false.

Would you please look over these solved cases?
[
  {
    "compound": "Clc1ccc2c(c1)CCc1cccnc1C2=C1CCNCC1",
    "classification": "false"
  },
  {
    "compound": "Cn1cc(/C=C/C(=O)c2ccccc2)c2ccccc21",
    "classification": "false"
  },
  {
    "compound": "Cc1nonc1CN(C)C(=O)c1ccc(OC2CCN(Cc3ccccn3)CC2)cc1",
    "classification": "false"
  },
  {
    "compound": "O=C(O)/C=C/c1cnc[nH]1",
    "classification": "true"
  },
  {
    "compound": "CC1(C)CC(NCc2ccccc2)CCO1 (configuration not stated)",
    "classification": "false"
  }
]

Query compound follows.
Report whether reported vesicle binding response is lower than 200% (strictly) for NC(N)=N/N=C/c1c(Cl)cccc1Cl
true

----------
- assay_procedure: reduced mouse 2C T cell binding to pMHC/ICAM-1 vesicles – MLPCN validation set, flow cytometry, LFA-1/ICAM-1 modulator project, pilot screen (AID 2523);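 further: mean PE anti-B7-1 fluorescence of CD8+ cells relative to row control; 100% = QL9-loaded vesicles with DMSO vehicle in the same plate row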
- test_conditions: 2C mouse CD8+ T cells, at 7 µM, stronger effect = lower value
Threshold 200%: vesicle binding response strictly smaller gives fulfilled, otherwise not fulfilled.

[
  {
    "molecule": "CS(=O)(=O)NCc1ccc(C(=O)NCc2ccccc2)cc1",
    "classification": "fulfilled"
  },
  {
    "molecule": "Cc1ccccc1NC(=O)NCCc1c[nH]c2ccccc12",
    "classification": "fulfilled"
  },
  {
    "molecule": "C=CCC1(O)C(=O)N2C(=C1C(=O)N1CCOCC1)c1ccccc1CC2(C)C (stereo not given)",
    "classification": "fulfilled"
  },
  {
    "molecule": "CC(C)(C)C(=O)NCCCNc1ccc([N+](=O)[O-])cc1",
    "classification": "not fulfilled"
  },
  {
    "molecule": "Cc1c(O)c(=O)ccn1C",
    "classification": "not fulfilled"
  },
  {
    "molecule": "CC1(C)CC(=O)c2cnc(NC(=O)C3CCCC3)nc2C1",
    "classification": "not fulfilled"
  },
  {
    "molecule": "O=C(NC(Nc1ccccn1)C(Cl)(Cl)Cl)c1ccccc1 (stereo not given)",
    "classification": "fulfilled"
  },
  {
    "molecule": "Cc1ccc(S(=O)(=O)n2ccnc2)cc1C",
    "classification": "fulfilled"
  },
  {
    "molecule": "Cc1ccc(O)c(CCc2ccccc2)n1",
    "classification": "not fulfilled"
  },
  {
    "molecule": "CC(=O)Nc1ccccc1C(=O)C(=O)Nc1ccccc1",
    "classification": "fulfilled"
  }
]

Report whether reported vesicle binding response is lower than 200% (strictly) for COc1cc2c(cc1OC)CN(Cc1ccc(C)s1)CC2
not fulfilled

Report whether reported vesicle binding response is lower than 200% (strictly) for N=c1nc(N2CCCCC2)cc(N)n1O
fulfilled

Report whether reported vesicle binding response is lower than 200% (strictly) for COc1ccc2[nH]c(=O)c3c(c2c1)OC(C)(C)C=C3
fulfilled

Report whether reported vesicle binding response is lower than 200% (strictly) for COc1ccc2c(=O)c(-c3cnn(-c4ccccc4)c3)c(C)oc2c1
fulfilled

Report whether reported vesicle binding response is lower than 200% (strictly) for COc1cc2c(cc1OC)C(=S)NC(C)(C)C2
not fulfilled

Report whether reported vesicle binding response is lower than 200% (strictly) for COc1ccc(C(=O)NCc2cccnc2)cc1
not fulfilled

Report whether reported vesicle binding response is lower than 200% (strictly) for CC(C)CC1c2[nH]c3ccccc3c2CCN1C(=O)CCC(=O)N(C)C (stereo not given)
not fulfilled

Report whether reported vesicle binding response is lower than 200% (strictly) for N#CCC(N)=C(C#N)C#N
fulfilled

Report whether reported vesicle binding response is lower than 200% (strictly) for CCCCCCC(=O)N(O)C1CC(=O)N(Cc2ccccc2)C1=O (stereo not given)
fulfilled

Report whether reported vesicle binding response is lower than 200% (strictly) for CC(C)(C)C(=O)NC(=S)NNC(=O)c1ccncc1
fulfilled

Report whether reported vesicle binding response is lower than 200% (strictly) for O=c1[nH]c(=O)n(C2CCCO2)cc1F (stereo not given)
fulfilled

Report whether reported vesicle binding response is lower than 200% (strictly) for COCCCN1C(=O)C(=O)/C(=C(/O)c2ccc3c(c2)CC(C)O3)C1c1cccnc1 (stereo not given)
fulfilled

Report whether reported vesicle binding response is lower than 200% (strictly) for CCC[C@@H]1C[C@@H](C(=O)N[C@H]([C@@H](C)O)[C@H]2O[C@H](SC)[C@H](O)[C@@H](O)C2O)N(C)C1 (stereo not given in full)
fulfilled

Report whether reported vesicle binding response is lower than 200% (strictly) for O=C(NCCc1ccccc1)C1CCN(C2CCN(Cc3ccco3)CC2)CC1
fulfilled

Report whether reported vesicle binding response is lower than 200% (strictly) for CCNC(=O)C12CCC(C)(C(=O)O1)C2(C)C (stereo not given)
fulfilled

----------
As shown below, each of these molecules has a reported percent of DMSO control GFP value.
- assay_procedure: rapamycin-like changes in RPL19A-GFP expression – cell-based, S. cerevisiae, multiplex flow cytometry, primary screen (AID 1862);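 further: lower values mimic rapamycin by blocking the RPL19A rise seen in DMSO cells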
- test_conditions: S. cerevisiae RPL19A-GFP strain, flow cytometry fluorescence, 3 h; at 10 µM; stronger effect = lower value
Results filed as inconclusive are left out.
Dear colleague, please return just the value in %, with no unit written.

[
  {
    "molecule": "Nc1cc(-c2ccncc2)c[nH]c1=O",
    "measurement_units": "%",
    "reported_value": 103
  }
]

Name the recorded percent of DMSO control GFP for COc1cccc(=O)c2c(C)n(CC(=O)c3ccccc3)c(C)c12 .
100

Name the recorded percent of DMSO control GFP for O=C1OC(c2ccccc2)=C/C1=C/c1cccs1 .
106

Name the recorded percent of DMSO control GFP for CCN(CC)CC#CCOC(=O)C(O)(c1ccccc1)C1CCCCC1 (centres undefined) .
91.1

Name the recorded percent of DMSO control GFP for Cc1cc(O)c2/c(=N\N)c(-c3csc(C)n3)coc2c1 .
105

Name the recorded percent of DMSO control GFP for O=C(CCCN1C(=O)/C(=C\c2cccs2)SC1=S)Nc1ccccn1 .
103

----------
- assayed_system: Integrin beta-1 (Homo sapiens) + Integrin alpha-4 (Homo sapiens) (UniProt P13612+P05556)
- Sequence (P05556 whole entry, looked up): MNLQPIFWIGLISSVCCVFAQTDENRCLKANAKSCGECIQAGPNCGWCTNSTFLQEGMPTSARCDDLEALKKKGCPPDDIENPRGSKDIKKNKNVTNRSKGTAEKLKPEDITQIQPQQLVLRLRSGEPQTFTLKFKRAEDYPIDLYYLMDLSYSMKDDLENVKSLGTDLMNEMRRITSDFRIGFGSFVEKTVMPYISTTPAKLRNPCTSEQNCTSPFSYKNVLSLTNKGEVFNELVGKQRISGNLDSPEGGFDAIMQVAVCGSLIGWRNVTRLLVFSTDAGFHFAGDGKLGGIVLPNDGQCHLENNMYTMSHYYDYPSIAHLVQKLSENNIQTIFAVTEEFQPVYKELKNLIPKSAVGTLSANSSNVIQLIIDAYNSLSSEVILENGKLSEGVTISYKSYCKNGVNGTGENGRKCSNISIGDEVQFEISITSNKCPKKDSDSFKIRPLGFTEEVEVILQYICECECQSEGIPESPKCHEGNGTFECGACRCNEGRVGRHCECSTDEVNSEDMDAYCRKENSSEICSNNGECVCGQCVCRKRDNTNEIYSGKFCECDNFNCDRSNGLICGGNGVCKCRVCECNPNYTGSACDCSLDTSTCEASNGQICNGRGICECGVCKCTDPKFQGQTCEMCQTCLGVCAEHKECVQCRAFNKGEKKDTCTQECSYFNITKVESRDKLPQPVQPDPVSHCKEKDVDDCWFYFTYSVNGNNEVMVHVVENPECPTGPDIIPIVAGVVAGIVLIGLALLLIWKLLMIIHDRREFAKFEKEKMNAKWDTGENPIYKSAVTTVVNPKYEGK
- Sequence (P13612 whole entry, looked up): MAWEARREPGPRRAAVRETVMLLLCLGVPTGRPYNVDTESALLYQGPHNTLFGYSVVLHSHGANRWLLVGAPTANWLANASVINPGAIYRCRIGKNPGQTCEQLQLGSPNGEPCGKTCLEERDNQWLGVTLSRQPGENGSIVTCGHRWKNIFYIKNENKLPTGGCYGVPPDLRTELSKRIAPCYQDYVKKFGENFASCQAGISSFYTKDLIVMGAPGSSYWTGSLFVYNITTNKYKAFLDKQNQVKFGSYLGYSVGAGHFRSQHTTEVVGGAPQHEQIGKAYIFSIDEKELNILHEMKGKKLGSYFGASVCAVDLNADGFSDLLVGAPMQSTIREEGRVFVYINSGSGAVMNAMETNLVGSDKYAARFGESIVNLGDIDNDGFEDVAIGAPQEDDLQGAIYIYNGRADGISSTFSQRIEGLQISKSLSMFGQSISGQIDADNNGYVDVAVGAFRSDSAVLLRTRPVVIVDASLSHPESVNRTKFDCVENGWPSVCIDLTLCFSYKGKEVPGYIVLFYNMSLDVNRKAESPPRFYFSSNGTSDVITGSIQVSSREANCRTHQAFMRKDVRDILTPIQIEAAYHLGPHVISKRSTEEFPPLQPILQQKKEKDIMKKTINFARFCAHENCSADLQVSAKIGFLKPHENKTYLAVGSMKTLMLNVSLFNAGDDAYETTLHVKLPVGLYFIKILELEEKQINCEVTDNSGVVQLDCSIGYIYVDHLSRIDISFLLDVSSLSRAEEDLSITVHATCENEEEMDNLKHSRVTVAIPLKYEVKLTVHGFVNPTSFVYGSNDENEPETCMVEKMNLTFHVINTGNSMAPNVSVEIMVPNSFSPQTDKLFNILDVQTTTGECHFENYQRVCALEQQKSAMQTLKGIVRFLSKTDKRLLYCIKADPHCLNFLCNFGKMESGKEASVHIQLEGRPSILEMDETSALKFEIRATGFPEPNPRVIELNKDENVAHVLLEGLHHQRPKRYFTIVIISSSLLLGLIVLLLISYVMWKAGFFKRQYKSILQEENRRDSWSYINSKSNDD
- assay_procedure: alpha4beta1 integrin LIBS antibody binding reduction – U937 cells, HUTS-21 mAb, flow cytometry, validation set, VLA-4 allosteric modulator project, pilot screen (AID 2674);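 further: antibody binding induced by the VLA-4 ligand LDV present at three times its Kd; 0% = LDV ligand with antibody and no compound and 100% = antibody without LDV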
- test_conditions: HUTS-21 LIBS mAb binding, at 6.7 µM, stronger effect = higher value, binding induced by LDV ligand
property_label: inhibition (%)
Dear colleague, please return just the value in %, with no unit written.

[
  {
    "molecule": "Cc1ccc(OCc2nc(-c3cccnc3)no2)cc1C",
    "assayed_system": "Integrin beta-1 (Homo sapiens) + Integrin alpha-4 (Homo sapiens) (UniProt P13612+P05556)",
    "inhibition, %": -7.12
  },
  {
    "molecule": "Nc1ccc2cn[nH]c2c1",
    "assayed_system": "Integrin beta-1 (Homo sapiens) + Integrin alpha-4 (Homo sapiens) (UniProt P13612+P05556)",
    "inhibition, %": -3.77
  },
  {
    "molecule": "COc1cc(C2Nc3ccccc3NC3=C2C(=O)CC(c2ccc(OC)c(OC)c2)C3)ccc1O (stereo unspecified)",
    "assayed_system": "Integrin beta-1 (Homo sapiens) + Integrin alpha-4 (Homo sapiens) (UniProt P13612+P05556)",
    "inhibition, %": -3.16
  }
]

Name the recorded inhibition for CCOCCCNCc1cn(-c2ccc(F)cc2F)nc1-c1ccccc1C .
-1.49

Name the recorded inhibition for CCOC(=O)C(NC(C)=O)C(O)c1ccc([N+](=O)[O-])cc1 (stereo unspecified) .
-3.16

Name the recorded inhibition for CCn1c(/C=C/c2ccccc2)nc2ccccc2c1=O .
7.76

Name the recorded inhibition for Nc1cnn(C2OC(CO)C(O)C2O)c(=O)n1 (stereo unspecified) .
-13.9

Name the recorded inhibition for Cc1ccc(C2=NOC(=O)/C2=C\C=C\c2ccccc2)cc1 .
33.8

Name the recorded inhibition for O=C1C2CC=C(Cl)CC2C(=O)N1CCc1c[nH]c2ccccc12 (stereo unspecified) .
16.2

Name the recorded inhibition for N#C/C(=C\c1ccc(O)c(O)c1)C(=O)NCCCc1ccccc1 .
-13

Name the recorded inhibition for CC(=O)C1=C(Nc2ccc(C)cc2)CC(C)(O)C(C(C)=O)C1c1ccco1 (stereo unspecified) .
-9.79
